# target-under-test: L-lactate dehydrogenase B chain (Homo sapiens, UniProt P07195)
# Sequence (P07195 whole entry): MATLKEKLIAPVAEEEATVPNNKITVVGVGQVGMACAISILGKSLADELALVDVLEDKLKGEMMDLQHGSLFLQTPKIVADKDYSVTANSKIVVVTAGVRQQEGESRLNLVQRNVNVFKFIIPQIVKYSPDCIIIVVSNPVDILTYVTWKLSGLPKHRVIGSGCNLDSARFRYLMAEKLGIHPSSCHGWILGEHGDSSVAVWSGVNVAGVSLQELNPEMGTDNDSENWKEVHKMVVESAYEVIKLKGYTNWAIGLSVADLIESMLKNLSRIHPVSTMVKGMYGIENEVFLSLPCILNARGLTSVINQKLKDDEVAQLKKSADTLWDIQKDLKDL
# assay-protocol: Binding affinity to full length human N-terminal His6-tagged LDH-H expressed in Escherichia coli Rosetta (DE3) measured after 5 mins by Red-NHS fluorescent dye based microscale thermophoresis analysis
pKd: −log10 of the molar value.

substance	pKd
H-ATLKEKLIAPVAEEEATVP-NH2	2.75

###

# target-under-test: L-lactate dehydrogenase B chain (Homo sapiens, UniProt P07195, K7A)
# Sequence (P07195 2-334 K7A limits assumed): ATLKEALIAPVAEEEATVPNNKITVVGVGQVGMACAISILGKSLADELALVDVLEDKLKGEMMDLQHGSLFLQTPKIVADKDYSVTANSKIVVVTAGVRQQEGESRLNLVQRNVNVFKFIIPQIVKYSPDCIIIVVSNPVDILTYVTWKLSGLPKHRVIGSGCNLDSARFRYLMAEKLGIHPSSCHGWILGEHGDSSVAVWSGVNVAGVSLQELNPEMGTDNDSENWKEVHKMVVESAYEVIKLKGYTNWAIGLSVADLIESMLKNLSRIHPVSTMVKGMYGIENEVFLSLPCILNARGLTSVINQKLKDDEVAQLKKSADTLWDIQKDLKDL
# assay-protocol: Binding affinity full length human N-terminal His6-tagged LDH-H K6A mutant expressed in Escherichia coli Rosetta (DE3) assessed as tetrameric disruption by nano differential scanning fluorimetry analysis
pEC50: −log10 of the molar value. Structures can show the parent of a compound that is named as a salt.

compound	pEC50
N=C(N)N [GUANIDINE HYDROCHLORIDE]	0.02

###

# target-under-test: L-lactate dehydrogenase B chain (Homo sapiens, UniProt P07195, T3A)
# Sequence (P07195 2-334 T3A limits assumed): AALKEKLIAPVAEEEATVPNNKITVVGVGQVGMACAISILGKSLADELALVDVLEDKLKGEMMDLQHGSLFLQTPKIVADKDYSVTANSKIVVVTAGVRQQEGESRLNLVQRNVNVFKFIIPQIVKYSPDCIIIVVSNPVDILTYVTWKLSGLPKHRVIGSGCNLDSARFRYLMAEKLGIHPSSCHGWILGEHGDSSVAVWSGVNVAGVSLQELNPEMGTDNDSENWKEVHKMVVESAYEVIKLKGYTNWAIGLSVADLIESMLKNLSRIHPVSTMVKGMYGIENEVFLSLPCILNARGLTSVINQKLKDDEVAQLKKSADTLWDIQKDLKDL
# assay-protocol: Binding affinity full length human N-terminal His6-tagged LDH-H T2A mutant expressed in Escherichia coli Rosetta (DE3) assessed as tetrameric disruption by nano differential scanning fluorimetry analysis
pEC50: −log10 of the molar value. Structures can show the parent of a compound that is named as a salt.

compound	pEC50
N=C(N)N [GUANIDINE HYDROCHLORIDE]	0.01
